# assay-details: Pulmonary and plasma levels after intratracheal administration
# Format: in vivo, rats
# run-conditions: rat, other: intratracheal (i.t.) instillation, lung, read-out: mean residence time in the lungs
endpoint-name: MRT (h)
Field format: number, assumed h, no unit text.

Given COc1ccc(/C(=C/c2c(Cl)cncc2Cl)OC(=O)[C@@H](C)c2ccc(CC(C)C)cc2)cc1OC [CHF 5480] , state its recorded MRT. 15.3

All values here come from patent US7671066B2.
